Test system: HL-60
Test: Anticancer activity against Homo sapiens (human) HL60 cells assessed as inhibition of cell proliferation after 72 hr by MTT assay
Type: functional, cell-based
Conditions: HL-60, 72 h
readout-name: pIC50
Notebook: values listed as pIC50 are -log10 of the concentration (mol/L).

Below: 3 compounds and their reported pIC50.
| smiles-entry | readout-name | recorded-value |
| --- | --- | --- |
| CCCn1c[n+](Cc2ccc(C[n+]3cn(CCC)c4ccccc43)cc2)c2ccccc21 | pIC50 | 4.31 |
| O=c1[nH]cc(F)c(=O)[nH]1 | pIC50 | 5.27 |
| CCn1c[n+](Cc2ccc(C[n+]3cn(CC)c4ccccc43)cc2)c2ccccc21 | pIC50 | 4.40 |

Shift focus to the following entry.
Could you tell me which pIC50 is on file for CCCCn1c[n+](Cc2ccc(C[n+]3cn(CCCC)c4ccccc43)cc2)c2ccccc21 ?
4.25
